test system: 994946-033-R-J1-PDC complex spheroid viability; assay: Anticancer human tumor 994946-033-R-J1-PDC patient-derived melanoma cell line growth inhibition [POLQ]; details: second compound 0.0316 µM; first compound 0.316 µM; stronger effect = lower value
MEASURED_ATTRIBUTE: viability, T/C

COMPOUND	viability, T/C
CCc1cc2c(N3CCc4c(cc(Cn5ccnc5)cc4-c4cn(C)nc4C(F)(F)F)C3=O)cc(C)nc2c(OC)n1 + COC1C(OC(N)=O)C(O)C(Oc2ccc3c(O)c(NC(=O)c4ccc(O)c(CC=C(C)C)c4)c(=O)oc3c2C)OC1(C)C	89.6%
CC1COCCN1c1cc(-c2ccnn2C)c2ccnc(-c3ccn[nH]3)c2n1 (stereo not given) + Nc1ccc(C#CCN(C(=O)Cc2ncc(C(F)(F)F)cc2C(F)(F)F)c2ccc(F)cc2)nn1	21.8%
CC(C)n1c(=O)n(C)c2cnc3cc(F)c(-c4ccc(OCCCN5CCCCC5)nc4)cc3c21 + Cc1cccc(N(C)C(=O)C2C(O)CCN2c2nc(C)cc(C(F)(F)F)c2C#N)c1	87.2%
C=CC(=O)N1CCN(c2nc(=O)n(-c3c(C)ccnc3C(C)C)c3nc(-c4c(O)cccc4F)c(F)cc23)C(C)C1 (stereo not given) + Nc1ccc(C#CCN(C(=O)Cc2ncc(C(F)(F)F)cc2C(F)(F)F)c2ccc(F)cc2)nn1	73.3%

Lab note: next compound to report on.
IN: Look up and report viability, T/C, with 994946-033-R-J1-PDC complex spheroid viability as system, for COc1cc(C2c3cc4c(cc3C(OC3OC5COC(C)OC5C(O)C3O)C3COC(=O)C23)OCO4)cc(OC)c1O (stereo not given) + COC1C(OC(N)=O)C(O)C(Oc2ccc3c(O)c(NC(=O)c4ccc(O)c(CC=C(C)C)c4)c(=O)oc3c2C)OC1(C)C
OUT: 46%

* * *

system: 994946-033-R-J1-PDC complex spheroid viability; test: Anticancer human tumor 994946-033-R-J1-PDC cell line growth inhibition [POLQ]; conditions: second compound 10 µM; first compound 0.0316 µM; stronger effect = lower value;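 note: spheroids exposed to drugs for 7 days; 100% = DMSO vehicle treated spheroids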
MEASURED_ATTRIBUTE: viability, T/C

Example compounds with recorded viability, T/C:
COMPOUND	RESULT
CC(C)n1c(=O)n(C)c2cnc3cc(F)c(-c4ccc(OCCCN5CCCCC5)nc4)cc3c21 + Nc1ccc(C#CCN(C(=O)Cc2ncc(C(F)(F)F)cc2C(F)(F)F)c2ccc(F)cc2)nn1	103%
COc1ccc([C@@H](O)c2cc(-c3ncnc4cc(N5CCOCC5)ccc34)c(F)cc2Cl)nn1 + COC1C(OC(N)=O)C(O)C(Oc2ccc3c(O)c(NC(=O)c4ccc(O)c(CC=C(C)C)c4)c(=O)oc3c2C)OC1(C)C	103%

Then this compound:
IN: Report measured viability, T/C on 994946-033-R-J1-PDC complex spheroid viability; entry: Nc1ccn(C2OC(CO)C(O)C2(F)F)c(=O)n1 (stereo not drawn) + Nc1ccc(C#CCN(C(=O)Cc2ncc(C(F)(F)F)cc2C(F)(F)F)c2ccc(F)cc2)nn1
OUT: 75.5%

* * *

test system: 994946-033-R-J1-PDC complex spheroid viability; experiment: Anticancer human tumor 994946-033-R-J1-PDC cell line growth inhibition [POLQ]; conditions: second compound 10 µM; first compound 0.0316 µM; stronger effect = lower value;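 note: spheroids exposed to drugs for 7 days; 100% = DMSO vehicle treated spheroids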
Entries whose viability, T/C is below 90% take rule met; entries at or above 90% take rule not met.

Would you please look over these solved cases?
COMPOUND	CLASS_NAME
CCc1cc2c(N3CCc4c(cc(Cn5ccnc5)cc4-c4cn(C)nc4C(F)(F)F)C3=O)ccnc2c(OC)n1 + Nc1ccc(C#CCN(C(=O)Cc2ncc(C(F)(F)F)cc2C(F)(F)F)c2ccc(F)cc2)nn1	rule not met
C=CCn1c(=O)c2cnc(Nc3ccc(N4CCN(C)CC4)cc3)nc2n1-c1cccc(C(C)(C)O)n1 + Nc1ccc(C#CCN(C(=O)Cc2ncc(C(F)(F)F)cc2C(F)(F)F)c2ccc(F)cc2)nn1	rule not met
COc1cccc2c1C(=O)c1c(O)c3c(c(O)c1C2=O)CC(O)(C(=O)CO)CC3OC1CC(N)C(O)C(C)O1 (stereo not given) + Nc1ccc(C#CCN(C(=O)Cc2ncc(C(F)(F)F)cc2C(F)(F)F)c2ccc(F)cc2)nn1	rule met

Continue with the compound presented below.
IN: Does this compound meet the criterion viability, T/C < 90%? COc1cc(C2c3cc4c(cc3C(OC3OC5COC(C)OC5C(O)C3O)C3COC(=O)C23)OCO4)cc(OC)c1O (stereo not given) + COC1C(OC(N)=O)C(O)C(Oc2ccc3c(O)c(NC(=O)c4ccc(O)c(CC=C(C)C)c4)c(=O)oc3c2C)OC1(C)C
OUT: rule not met
